Reference for the values: patent US9271977B2

Could you please report measured half-life for the items listed next?
- EXPERIMENT_SUMMARY: Microsome stability assay, human liver microsomes
- Type: in vitro ADME
- ASSAY_CONDITIONS: pH 7.4; human liver microsomes, NADPH, 37° C.
Form entry: value (min) — number only.

Query: So what's the measured half-life for this one? CC[C@H]1C[C@H](C)[C@@]2(NC1=O)O[C@@H](C[C@H](O)[C@@H](C)CC/C=C/C=C(\C)[C@@H]1C/C=C/C=C/[C@H](O)[C@H](C)[C@@H](O)[C@@H](CCC(C)=O)C(=O)N[C@@H](C(C)C)C(=O)N[C@@H](Cc3ccc(F)c(O)c3)C(=O)N3CCCC(N3)C(=O)O1)[C@H](C)[C@H](O)[C@@H]2C (stereo partly shown)
Response: 6.61

Query: Request: CC[C@H]1C[C@H](C)[C@@]2(NC1=O)O[C@@H](C[C@H](O)[C@@H](C)CC/C=C/C=C(\C)[C@@H]1C/C=C/C=C/[C@H](O)[C@H](C)[C@@H](O)[C@@H](CCC(C)=O)C(=O)N[C@@H](C(C)C)C(=O)N[C@@H](Cc3cc(O)c(F)c(F)c3)C(=O)N3CCCC(N3)C(=O)O1)[C@H](C)[C@H](O)[C@@H]2C (stereo partly shown)
Response: 10.8

Query: Then this compound: CC[C@H]1C[C@H](C)[C@@]2(NC1=O)O[C@@H](C[C@H](O)[C@@H](C)CC/C=C/C=C(\C)[C@@H]1C/C=C/C=C/[C@H](O)[C@H](C)[C@@H](O)[C@@H](CCC(C)=O)C(=O)N[C@@H](C(C)C)C(=O)N[C@@H](Cc3ccc(C)c(O)c3)C(=O)N3CCCC(N3)C(=O)O1)[C@H](C)[C@H](O)[C@@H]2C (stereo partly shown)
Response: 9.5

Query: Now this one: CC[C@H]1C[C@H](C)[C@@]2(NC1=O)O[C@@H](C[C@H](O)[C@@H](C)CC/C=C/C=C(\C)[C@@H]1C/C=C/C=C/[C@H](O)[C@H](C)[C@@H](O)[C@@H](CCC(C)=O)C(=O)N[C@@H](C(C)C)C(=O)N[C@@H](Cc3cc(O)cc(F)c3)C(=O)N3CCCC(N3)C(=O)O1)[C@H](C)[C@H](O)[C@@H]2C (stereo partly shown)
Response: 9.32
